In this section, each of the binders is paired with its reported pKd.
# tested.system: T1, Recombinant EBOV GP without transmembrane domain (Zaire ebolavirus, strain of GP not …, UniProt Q05320)
# T1 construct: also called recombinant GP; EBOV rGPdTM; source: bought: IBT Bioservices
# T1 sequence (Q05320 whole entry, looked up, the tested form may be a part): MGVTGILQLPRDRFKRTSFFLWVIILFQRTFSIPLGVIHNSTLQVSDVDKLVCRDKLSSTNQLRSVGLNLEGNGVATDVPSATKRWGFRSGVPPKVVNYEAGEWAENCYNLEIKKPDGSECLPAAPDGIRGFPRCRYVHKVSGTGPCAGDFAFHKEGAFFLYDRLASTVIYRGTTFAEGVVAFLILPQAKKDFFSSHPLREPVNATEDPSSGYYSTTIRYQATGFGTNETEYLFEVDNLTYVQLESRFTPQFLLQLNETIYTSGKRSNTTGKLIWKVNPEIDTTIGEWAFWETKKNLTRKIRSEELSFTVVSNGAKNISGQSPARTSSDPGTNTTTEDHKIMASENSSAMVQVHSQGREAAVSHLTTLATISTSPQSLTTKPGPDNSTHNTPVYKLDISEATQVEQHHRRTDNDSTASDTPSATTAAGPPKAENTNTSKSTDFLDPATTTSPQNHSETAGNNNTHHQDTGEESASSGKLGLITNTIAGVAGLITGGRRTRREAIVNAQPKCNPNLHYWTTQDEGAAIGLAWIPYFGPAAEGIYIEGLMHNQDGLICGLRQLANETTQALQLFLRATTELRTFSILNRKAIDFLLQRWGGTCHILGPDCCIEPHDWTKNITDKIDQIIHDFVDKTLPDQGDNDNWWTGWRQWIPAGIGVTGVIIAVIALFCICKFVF
# test: SPR
# test.settings: both partners purified
pKd: −log10 of the molar value.

binder: EBOV-GP-H7 (VHH) VHH: DVQLQASGGGLVQAGGSLRLSCAASSGTFSSYTMGWFRQAPGKERELVARLSQSLTTLYADSVKGRFTISRDNAENTVYLQMNSLKPEDTGVYYCAAHPGTYGSAWLISPHDYAYWGQGTQVTVS
pKd: 7.77
//
binder: EBOV-GP-B11 (VHH) VHH: EVQLQASGGGLVQTGGSLRLACAGSGRSFNNYGMGWFRQAPGKERQFVAAISGNDHTTHYSDSVKGRFTISRDNAKTTVYLQMNSLKPEDTAVYYCAADRLGSFFFPRASPSDYGYWGQGTQVTVS
pKd: 7.44

Source listed as paper PMC5726015.
